- Assay System: Follistatin (Homo sapiens)
- Protocol Notes: follistatin binders on small-molecule microarrays, primary screen, biochemical, small-molecule microarray, 635/667 nm fluorescence (AID 1132)
- Study Conditions: FST binding, 635 nm fluorescence, higher = more signal
Measured Parameter: composite z-score
Returns: the value as a bare number; no unit string appended.

Observe how each entry below is paired with its result.
COCCCN1C(=O)[C@@]2(Cc3ccccc31)c1ccccc1C(=O)N(Cc1ccccc1OC)[C@H]2c1ccc(CO)cc1 :: -1.07
CCOC(=O)C1=C(C(=O)OCC)N(S(=O)(=O)CC[Si](C)(C)C)[C@H](c2ccccc2)CC1 :: 0.761

Form: compound = C=CCC(OC(C)=O)[C@@H]1[C@@H](N(Cc2ccc(-c3cccc(C(F)(F)F)c3)o2)C(=O)Cc2ccc(F)cc2)c2cc(OCCCO)ccc2N1C(=O)c1ccc2ccccc2n1 (some centres undefined) ; composite z-score = 0.67

Form: compound = CCCCC(O)C1C=CC2C(=O)NC(=O)C2N1Nc1ccccn1 (centres undefined) ; composite z-score = -0.117
